# Test system: MKL-1
# Assay procedure: growth inhibition relative to DMSO control (fraction); higher = stronger growth inhibition
# Condition notes: GSK-LSD1 concentration 10 nM; partner concentration 1 nM; treatment time: 6 days
Give 1 (yes) when the value for growth inhibition is at least 0.4. Give 0 (no) when it is less.

- Compound: "c1ccc([C@@H]2C[C@H]2NC2CCNCC2)cc1 [GSK-LSD1] + CN1CCN(c2ccc(-c3cccc(CN4CCOCC4)c3)cc2NC(=O)c2c[nH]c(=O)cc2C(F)(F)F)CC1 [OICR9429]"
  Group label: "0 (no)"
- Compound: "c1ccc([C@@H]2C[C@H]2NC2CCNCC2)cc1 [GSK-LSD1] + O=C(NC[C@H](O)CN1CCc2ccccc2C1)c1ccnc(NC2CCC2)c1 [GSK591]"
  Group label: "1 (yes)"
- Compound: "c1ccc([C@@H]2C[C@H]2NC2CCNCC2)cc1 [GSK-LSD1] + Cc1sc2c(c1C)C(c1ccc(Cl)cc1)=N[C@@H](CC(=O)OC(C)(C)C)c1nnc(C)n1-2 [(+)-JQ1]"
  Group label: "0 (no)"
- Compound: "c1ccc([C@@H]2C[C@H]2NC2CCNCC2)cc1 [GSK-LSD1] + Nc1ccccc1NC(=O)c1ccc(CNC(=O)OCc2cccnc2)cc1 [Entinostat]"
  Group label: "1 (yes)"
- Compound: "c1ccc([C@@H]2C[C@H]2NC2CCNCC2)cc1 [GSK-LSD1] + Cc1cc2c(cc1N1C(=O)c3cccc4c(CCCO)ccc(c34)C1=O)n(C)c(=O)n2C [BAY299]"
  Group label: "1 (yes)"
- Compound: "c1ccc([C@@H]2C[C@H]2NC2CCNCC2)cc1 [GSK-LSD1] + CCOC(=O)NCCCC(=O)NCCc1ccccc1 [Santacruzamate A]"
  Group label: "0 (no)"

Recorded values, source the supplement of paper PMC7645387.
